target: T1, human PD-L1 (Cat. #10084-H08H, Sino Biological) (human, UniProt Q9NZQ7 19-239); assay: SPR, Biacore X100, 1:1 Langmuir
T1 construct: Bought recombinant protein used in the Biacore test; also called hPDL1; hPD-L1
T1 sequence (Q9NZQ7 19-239 limits assumed): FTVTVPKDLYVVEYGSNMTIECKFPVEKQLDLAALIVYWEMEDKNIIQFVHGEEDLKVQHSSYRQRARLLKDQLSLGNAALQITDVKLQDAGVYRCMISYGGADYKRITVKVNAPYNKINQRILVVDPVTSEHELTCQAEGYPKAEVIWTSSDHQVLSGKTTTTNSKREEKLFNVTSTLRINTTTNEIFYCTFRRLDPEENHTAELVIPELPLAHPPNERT
pKd: −log10 of the molar value.
Measured pKd by item

Binder	pKd
H14L61 (antibody, human IgG1, kappa, V domains shown, also called 24D5 H14 and 24D5 L61) VH: QVQLVQSGAEVKKPGASVKVSCKASGYTFTSYWMHWVRQAPGQGLEWMGRIHPSLGLPLYNEKFKNRVTMTRDTSTSTVYMELSSLRSEDTAVYYCARGGSSYDYFDYWGQGTTVTVSS VL: DIVLTQSPASLAVSPGQRATITCRASESVSIHGTHLMHWYQQKPGQPPKLLIYAASNLESGVPARFSGSGSGTDFTLTINPVEAEDTANYYCQQSFEDPLTFGQGTKLEIKR	10.42
H12L64 (antibody, human IgG1, kappa, V domains shown, from the HRP00052 mutant library; also called 24D5 H12 and 24D5 L64) VH: QVQLVQSGAEVKKPGASVKVSCKASGYTFTSYWMHWVRQAPGQGLEWMGRITPSSGFAMYNEKFKNRVTMTRDTSTSTVYMELSSLRSEDTAVYYCARGGSSYDYFDYWGQGTTVTVSS VL: DIVLTQSPASLAVSPGQRATITCRASESVSIHGTHLMHWYQQKPGQPPKLLIYVASYAASGVPARFSGSGSGTDFTLTINPVEAEDTANYYCQQSFEDPLTFGQGTKLEIKR	10.49
H6L11 (antibody, human IgG1, kappa, V domains shown, also called 9-2 H6 and 9-2 L11) VH: QVQLQESGPGLVKPSQTLSLTCTVSGGSISNDYWTWIRQHPGKGLEYIGFISRAGSTYNTPSLKGRVTISRDTSKNQFSLKLSSVTAADTAVYYCARSGGWLAPFDYWGRGTLVTVSS VL: DIVMTQSPDSLAVSLGERATINCKSSQSLFYHSNQKHSLAWYQQKPGQPPKLLIYGASTRESGVPDRFSGSGSGTDFTLTISSLQAEDVAVYYCQQYYGYPYTFGGGTKVEIKR	9.64
